System: MFE-280 (Endometrial Carcinoma)
ASSAY TEXT: Bliss excess, mean over the matrix (fraction); higher = more synergy
Kindly supply the reported Bliss excess values for the records listed here.
# answer = number (no unit)

Please give the measured Bliss excess for this molecule: C=CCn1c(=O)c2cnc(Nc3ccc(N4CCN(C)CC4)cc3)nc2n1-c1cccc(C(C)(C)O)n1 [AZD1775] + O=C(c1cc(Cc2n[nH]c(=O)c3ccccc23)ccc1F)N1CCN(C(=O)C2CC2)CC1 [Olaparib] (first compound max 1 µM, partner max 10 µM)
-0.0652

Try this molecule too: C=CCn1c(=O)c2cnc(Nc3ccc(N4CCN(C)CC4)cc3)nc2n1-c1cccc(C(C)(C)O)n1 [AZD1775] + C[C@@H]1COCCN1C2=NC(=NC(=C2)C3(CC3)[S@](=N)(=O)C)C4=C5C=CNC5=NC=C4 [AZD6738] (first compound max 1 µM, partner max 10 µM)
0.0536

* * *

Test system: HCT-15 (Colorectal Carcinoma)
ASSAY TEXT: combination Emax (second highest fraction inhibited in the dose matrix, 72 h); higher = more inhibition; extreme values may be limits of the assay
READOUT KIND: combination Emax
Please respond with just the number, no unit label.

Tell me the measured combination Emax of CC(=O)c1c(C)c2cnc(Nc3ccc(N4CCNCC4)cn3)nc2n(C2CCCC2)c1=O [Palbociclib] + Cn1cnc2c(F)c(Nc3ccc(Br)cc3Cl)c(C(=O)NOCCO)cc21 [Selumetinib] (first compound max 10 µM, 7x7, partner max 10 µM) , please.
0.523

Same read-out for Cc1cc2ncnn2cc1Nc1ncc2c(n1)n(C1CCOCC1)c(=O)n2C [AZD7648] + O=C(c1cc(Cc2n[nH]c(=O)c3ccccc23)ccc1F)N1CCN(C(=O)C2CC2)CC1 [Olaparib] (first compound max 10 µM, 7x7, partner max 10 µM) ?
0.501

Consider next the compound Cc1c2c(nn1C)CSCc1cc(n(C)n1)CSc1cc(c3ccccc3c1)OCCCc1c(C(=O)O)n(C)c3c-2c(Cl)ccc13 [AZD5991] + C1CN(CCC1(C(=O)N[C@@H](CCO)C2=CC=C(C=C2)Cl)N)C3=NC=NC4=C3C=CN4 [Capivasertib] (first compound max 1 µM, 7x7, partner max 3 µM) in the same way.
0.209

One more compound: CN(C)CCCOc1ccc(-c2ccc3ncc4c(c3c2)n(C2CCOCC2)c(=O)n4C)cn1 [AZD0156] + C[C@@H]1COCCN1C2=NC(=NC(=C2)C3(CC3)[S@](=N)(=O)C)C4=C5C=CNC5=NC=C4 [AZD6738] (first compound max 1 µM, 7x7, partner max 10 µM)
0.915

* * *

System: WM278 (Melanoma)
ASSAY TEXT: Bliss excess, mean over the matrix (fraction); higher = more synergy
READOUT KIND: Bliss excess

What measured Bliss excess goes with CC(=O)c1c(C)c2cnc(Nc3ccc(N4CCNCC4)cn3)nc2n(C2CCCC2)c1=O [Palbociclib] + CC1(C)CCC(CN2CCN(c3ccc(C(=O)NS(=O)(=O)c4ccc(NCC5CCOCC5)c([N+](=O)[O-])c4)c(Oc4cnc5[nH]ccc5c4)c3)CC2)=C(c2ccc(Cl)cc2)C1 [Venetoclax] (first compound max 10 µM, 7x7, partner max 1 µM) ?
-0.0338

// same read-out, input: COc1cccc(OCCCN)c1-c1cc(Nc2cnc(C#N)cn2)n[nH]1 [Prexasertib] + C=CCn1c(=O)c2cnc(Nc3ccc(N4CCN(C)CC4)cc3)nc2n1-c1cccc(C(C)(C)O)n1 [AZD1775] (first compound max 1 µM, partner max 1 µM)
0.0753

Follow-up item: CC(=O)Nc1cccc(-n2c(=O)n(C3CC3)c(=O)c3c(Nc4ccc(I)cc4F)n(C)c(=O)c(C)c32)c1 [Trametinib] + Cc1nc(-c2cn3c(n2)-c2ccc(-c4cnn(C(C)(C)C(N)=O)c4)cc2OCC3)n(C(C)C)n1 [Taselisib] (first compound max 1 µM, 7x7, partner max 10 µM)
0.13
